Target: amyloid β-protein 42 (Aβ-42) (Homo sapiens, UniProt P05067)
Construct: amyloid β-protein 42 (Aβ-42, n = 79)
Sequence (P05067 672-713 limits assumed): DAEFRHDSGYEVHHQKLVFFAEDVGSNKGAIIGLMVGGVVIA
Test: SPR affinity assay (Biacore X100), KD of peptides to Aβ-42
Format: binding
Details: Biacore X100, protein coupled to CM5 chip, HBS-EP buffer, six peptide concentrations, same value repeated on each docking-run line
Description: Equilibrium dissociation constants (KD) between all 194 (115 + 79) peptides and their receptor proteins were determined by SPR using the Biacore X100 instrument. […] The peptide was diluted in six different concentrations with HBS-EP buffer and flowed into the machine from low to high, and its resonance signal change was detected separately. […] Finally, the peptides bound to the proteins were completely eluted off with 0.25% SDS solution for the next cycle until all peptides were detected. […]
No end group written: not given here.
measurementType: Kd
Give the figure together with its unit, number first.

Task: Test system amyloid β-protein 42 (Aβ-42) (Homo sapiens, UniProt P05067); read-out Kd; what value for YVRHGH [DPL_1069] ?
Output: 37.1 µM

----------
Below, each of the substances is paired with its reported Kd value.
target: porcine epidemic diarrhea virus spike (PEDV S) protein (Porcine epidemic diarrhea virus); assay: SPR affinity assay, KD of six-amino-acid peptides to PEDV S protein; type: binding; conditions: receptor PEDV S; PEDV peptide dataset used for model performance validation; same value repeated on each line of a peptide
Sequence (Q91AV1 26-1383): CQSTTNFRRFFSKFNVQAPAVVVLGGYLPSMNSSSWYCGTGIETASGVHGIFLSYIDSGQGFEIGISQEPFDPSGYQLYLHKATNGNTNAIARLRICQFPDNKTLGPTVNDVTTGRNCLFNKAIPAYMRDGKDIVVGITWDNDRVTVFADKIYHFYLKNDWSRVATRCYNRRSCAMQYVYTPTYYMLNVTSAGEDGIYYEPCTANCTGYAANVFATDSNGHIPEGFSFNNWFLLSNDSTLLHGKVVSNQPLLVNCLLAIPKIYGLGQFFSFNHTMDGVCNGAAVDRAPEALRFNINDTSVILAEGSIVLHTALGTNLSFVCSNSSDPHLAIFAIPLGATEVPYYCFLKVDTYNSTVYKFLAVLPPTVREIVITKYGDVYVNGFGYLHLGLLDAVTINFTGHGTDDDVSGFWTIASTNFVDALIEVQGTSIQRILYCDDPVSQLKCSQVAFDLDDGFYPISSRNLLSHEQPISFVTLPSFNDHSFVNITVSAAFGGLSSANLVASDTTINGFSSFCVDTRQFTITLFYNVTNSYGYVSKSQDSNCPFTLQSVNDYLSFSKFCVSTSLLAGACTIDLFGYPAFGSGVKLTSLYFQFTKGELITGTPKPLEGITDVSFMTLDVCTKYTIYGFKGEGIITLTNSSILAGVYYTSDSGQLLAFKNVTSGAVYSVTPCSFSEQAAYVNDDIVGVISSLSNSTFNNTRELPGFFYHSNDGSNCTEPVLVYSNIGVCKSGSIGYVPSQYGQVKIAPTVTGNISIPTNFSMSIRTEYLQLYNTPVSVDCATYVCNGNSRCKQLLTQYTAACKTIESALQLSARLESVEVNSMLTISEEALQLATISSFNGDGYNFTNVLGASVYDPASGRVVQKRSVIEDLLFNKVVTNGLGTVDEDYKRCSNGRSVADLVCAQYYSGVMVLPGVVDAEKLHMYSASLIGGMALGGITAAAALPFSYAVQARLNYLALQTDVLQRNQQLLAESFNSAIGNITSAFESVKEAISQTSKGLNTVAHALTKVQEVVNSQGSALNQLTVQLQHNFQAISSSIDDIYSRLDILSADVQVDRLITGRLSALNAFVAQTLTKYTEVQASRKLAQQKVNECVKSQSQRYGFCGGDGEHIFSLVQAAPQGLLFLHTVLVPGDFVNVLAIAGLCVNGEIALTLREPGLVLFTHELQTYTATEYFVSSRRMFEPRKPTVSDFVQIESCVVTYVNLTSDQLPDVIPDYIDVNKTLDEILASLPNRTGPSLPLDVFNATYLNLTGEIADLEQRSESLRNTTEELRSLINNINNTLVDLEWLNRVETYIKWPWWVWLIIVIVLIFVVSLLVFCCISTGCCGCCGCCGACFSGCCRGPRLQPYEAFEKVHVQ
No end group written: not given here.
Express it in µM; write the number only.

A selection of reference data follows.
RKQGVK [DPL_1054]	192
RKQICW [DPL_1053]	21.8

Task: Test system porcine epidemic diarrhea virus spike (PEDV S) protein (Porcine epidemic diarrhea virus); read-out Kd; what value for WHFMIK [DPL_1048] ?
Output: 0.13

Task: Test system porcine epidemic diarrhea virus spike (PEDV S) protein (Porcine epidemic diarrhea virus); read-out Kd; what value for RKQFDK [DPL_1051] ?
Output: 0.00736

Task: Test system porcine epidemic diarrhea virus spike (PEDV S) protein (Porcine epidemic diarrhea virus); read-out Kd; what value for WHFGSK [DPL_1047] ?
Output: 69.8

Task: Test system porcine epidemic diarrhea virus spike (PEDV S) protein (Porcine epidemic diarrhea virus); read-out Kd; what value for RKQSHK [DPL_1052] ?
Output: 44.5

Task: Test system porcine epidemic diarrhea virus spike (PEDV S) protein (Porcine epidemic diarrhea virus); read-out Kd; what value for RKQKDW [DPL_1049] ?
Output: 0.35

Task: Test system porcine epidemic diarrhea virus spike (PEDV S) protein (Porcine epidemic diarrhea virus); read-out Kd; what value for RKQWPQ [DPL_1050] ?
Output: 0.556

----------
molecular target: porcine epidemic diarrhea virus spike (PEDV S) protein (Porcine epidemic diarrhea virus); assay: SPR affinity assay, KD of six-amino-acid peptides to PEDV S protein; format: binding; settings: SPR, receptor PEDV S; value repeated on each of the 20 docking-pose lines per peptide
No end group written: not given here.
measurementType: Kd
Give the figure together with its unit, number first.

A selection of reference data follows.
FWKYHE [DPL_1015]	43.4 µM
FWKHDI [DPL_1017]	56.2 µM
FWKFWK [DPL_1018]	25.4 µM
FWKKED [DPL_1020]	7.04 µM
FWKPDQ [DPL_1019]	16.7 µM

Task: Test system porcine epidemic diarrhea virus spike (PEDV S) protein (Porcine epidemic diarrhea virus); read-out Kd; what value for FWKSWH [DPL_1016] ?
Output: 34.9 µM

Task: Test system porcine epidemic diarrhea virus spike (PEDV S) protein (Porcine epidemic diarrhea virus); read-out Kd; what value for FWKQNK [DPL_1013] ?
Output: 1190 µM

Task: Test system porcine epidemic diarrhea virus spike (PEDV S) protein (Porcine epidemic diarrhea virus); read-out Kd; what value for FWKPKR [DPL_1021] ?
Output: 39.5 µM

Task: Test system porcine epidemic diarrhea virus spike (PEDV S) protein (Porcine epidemic diarrhea virus); read-out Kd; what value for FWKWHW [DPL_1014] ?
Output: 0.136 µM

----------
biological target: porcine epidemic diarrhea virus spike (PEDV S) protein (Porcine epidemic diarrhea virus); experiment: SPR affinity assay, KD of six-amino-acid peptides to PEDV S protein; format: binding; settings: Receptor PEDV S; SPR; value repeated on each docking-pose line of the peptide
No end group written: not given here.
Field: label. Allowed values: condition met (Kd < 2 µM) or condition not met (Kd >= 2 µM).

These solved cases illustrate the format of a correct answer.
RKQHCK [DPL_1057]	condition met
KHQWKY [DPL_1062]	condition not met
RKQYWQ [DPL_1058]	condition not met
RKQHLL [DPL_1055]	condition met
RKQHIS [DPL_1056]	condition not met

Turning to the following substance.
Task: Would you kindly verify if Kd of KHQAHH [DPL_1060] is strictly less than 2 µM?
Output: condition met

----------
Below, each of the substances is paired with its reported pKd value.
molecular target: porcine epidemic diarrhea virus spike (PEDV S) protein (Porcine epidemic diarrhea virus); experiment: SPR affinity assay, KD of six-amino-acid peptides to PEDV S protein; assay type: binding; details: Receptor PEDV S; PEDV peptide dataset used for model performance validation; value repeated on each docking-pose line
No end group written: not given here.
Value format note: pKd is -log10 of concentration (mol/L); just state the number.

A selection of reference data follows.
FWKISH [DPL_1030]	4.55
WHFKYR [DPL_1041]	8.82
WHFWWQ [DPL_1044]	4.05
FWKQNKCR [DPL_1034]	4.62
WHFEYF [DPL_1043]	4.36

Task: Test system porcine epidemic diarrhea virus spike (PEDV S) protein (Porcine epidemic diarrhea virus); read-out pKd; what value for WHFFKT [DPL_1039] ?
Output: 4.59

Task: Test system porcine epidemic diarrhea virus spike (PEDV S) protein (Porcine epidemic diarrhea virus); read-out pKd; what value for WHFMIY [DPL_1040] ?
Output: 3.75

----------
biological target: porcine epidemic diarrhea virus spike (PEDV S) protein (Porcine epidemic diarrhea virus); assay: SPR affinity assay, KD of six-amino-acid peptides to PEDV S protein; format: binding; details: Receptor PEDV S; PEDV peptide dataset used for model performance validation; value repeated on each docking-pose line
No end group written: not given here.
measurementType: log10 Kd (log10 of the value in µM)
Recall that a logarithmic scale is used here: each number is log10 of Kd in µM.

A selection of reference data follows.
WHFCQH [DPL_1038]	-0.80
FWKEAK [DPL_1032]	0.89

Task: Endpoint output: log10 Kd of WHFSKC [DPL_1036] . Value?
Output: 0.51

Task: Endpoint output: log10 Kd of WHFQNQ [DPL_1037] . Value?
Output: 0.51

Task: Endpoint output: log10 Kd of WHFHWP [DPL_1045] . Value?
Output: 2.25

Task: Endpoint output: log10 Kd of FWKQNKFL [DPL_1035] . Value?
Output: 1.18

----------
biological target: porcine epidemic diarrhea virus spike (PEDV S) protein (Porcine epidemic diarrhea virus); experiment: SPR affinity assay, KD of six-amino-acid peptides to PEDV S protein; format: binding; conditions: Receptor PEDV S; PEDV peptide dataset used for model performance validation; value repeated on each docking-pose line
No end group written: not given here.
measurementType: Kd (µM)
Express it in µM; write the number only.

A selection of reference data follows.
WHFNRP [DPL_1046]	65.2
WHFWIV [DPL_1042]	15.2

Shifting focus to the substance that follows.
Task: Endpoint output: Kd of FWKAKQ [DPL_1033] . Value?
Output: 45.5
